Ref: PubChem BioAssay (NCI)

Tested on: SNB-19 CNS
test.summary: NCI tumour cell line growth inhibition, 48 h; in the data active = GI50 below about 0.43 µM; inactive = the rest
Write down the outcome that applies. Available outcomes: active, inactive

Worked cases, answers included:
INSERT INTO assay_data (compound, assigned_category) VALUES
  ('CCOC(=O)N1CCN(CCCCCOc2ccccc2C2CCCCC2)CC1', 'inactive'),
  ('COc1ccc(C2=C(N3CCc4ccccc43)C(=O)NC2=O)cc1', 'inactive'),
  ('COc1ccc(C(=O)c2nc3ccccc3n2CC(=O)c2ccc(Cl)cc2)cc1', 'inactive'),
  ('CC(=Nc1ccc(S(N)(=O)=O)cc1)c1c(O)[nH]c2ccccc12', 'inactive'),
  ('O=[N+]([O-])c1ccc(-c2cc3c(Nc4ccc(Cl)c(C(F)(F)F)c4)ncnc3s2)cc1', 'inactive');

Qu. Call for entry CCCCCCCCCCCCCC[n+]1cccc(C(N)=O)c1 :
Ans. inactive

Qu. Call for entry O=C(c1cccs1)C1NO[N+]([O-])=C1c1cccs1 (stereo unspecified) :
Ans. inactive

Qu. Call for entry COc1cc2nc(-c3ccc(C(F)(F)F)cc3)cc(OCCCN3CCCC3)c2cc1OC :
Ans. inactive

Qu. Call for entry CC(=O)[CH-]C(=O)c1ccccc1.CC(=O)[CH-]C(=O)c1ccccc1.CC1(C)OCC(C2OC3OC(C)(C)OC3C2[O-])O1.CC[O-].[Ti+4] (stereo unspecified) :
Ans. inactive

Qu. Call for entry CSc1ccc(N(C)c2nc(C)nc3c2CCC3)cc1 :
Ans. active

Qu. Call for entry [2H]c1nc(=Nc2cc(NC(=O)C=C)c(N(C)CCN(C)C)cc2OC)[nH]c(-c2cn(C([2H])([2H])[2H])c3ccccc23)c1[2H] :
Ans. inactive
